B1: POU domain, class 3, transcription factor 3, residues 408 to 463; numbered along this chain, P20264 (parent)
chain: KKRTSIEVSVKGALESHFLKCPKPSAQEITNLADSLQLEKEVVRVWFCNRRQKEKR

Variants of: B1
measurement protocol: abundance fitness (aPCA) (normalised: wild type 0, dead -1); higher = more abundant; growth selection in yeast, the domain comes from the species named
condition set: Homo sapiens
Each record here notes measured abundance fitness.
Quick one: just the number, no unit, thanks!

>>> reported_result("P24Q")
-0.842

Entry L36C : reported abundance fitness = ?
-0.517

# input variant: K23E ; wanted: its abundance fitness
-0.028

So what's the measured abundance fitness for this one? S9R
-0.018

Can you share its abundance fitness? I mean this variant: K2W
-0.321

What value of abundance fitness has been reported for the following variant? K2H
-0.38

What value of abundance fitness has been recorded for this entry: K20D
-0.197

So what does the record say about abundance fitness for H17N ?
-0.189

Query: abundance fitness; subject: S16R
-0.011

Could you share which abundance fitness value was measured for K2E ?
-0.054

Return reported abundance fitness; argument: S35T
-0.07

For A13I , what is its reported abundance fitness?
-0.046

Need abundance fitness of R56M , thanks.
0.002
